# experimental target: human Factor IXa (human, UniProt P00740 47-191; P00740 227-461)
# assay details: cell-based or functional assay
Primed or numbered codes have the meaning given here. Side chains are listed from the residue outwards. Ends that are not written are not given here. * marks the point of attachment. Biotin = O=C1N[C@H]2[C@H](CS[C@H]2CCCCC(=O)*)N1; PEG2′ = PEG2 spacer unit
measure: EC50 [µM], FXa generation assay with hFIXa

RRAPGKLTCLAK([PEG2′-Biotin])YCWLFWTGIA-NH2 (cysteine pairing not given here) [compound 18]    < 0.5 µM

Report EC50 [µM], FXa generation assay with hFIXa, nothing else, for this binder: RRAPGKLQCLASYCWLFWTGIA-NH2 (not fully specified (bridges); cysteine pairing not given here) [compound 3]
< 0.5 µM

Return the recorded EC50 [µM], FXa generation assay with hFIXa value; entry: PLKWTASGCRWLGCIQLARFAY-NH2 (cysteine pairing not given here) [compound B]
> 1 µM

Hello, please tell me recorded EC50 [µM], FXa generation assay with hFIXa for this one: RRAPGKLTCLASYCWLFWTGIA-NH2 (cysteine pairing not given here) [compound 4]
< 0.5 µM

Input RRAPGKLTCLASYCWLFK([PEG2′-Biotin])TGIA-NH2 (not fully specified (bridges); printed as RRAPGKLTCLASYCWLFK(PEG2-Biotin)TGIA; cysteine pairing not given here, also called compound 4 biotinylated at K18) [compound 19] , output reported EC50 [µM], FXa generation assay with hFIXa.
< 0.5 µM
